conditions: basic group
Response field class: string, computed from recorded pKa by ranges low band = under 5, middle band = from 5 up to 8, high band = 8 and over

- MOL: "CC(=O)Nc1ccc(N)cc1"
  CLASS_NAME: "low band"
- MOL: "C[C@H]([NH3+])[C@@H](C)N"
  CLASS_NAME: "middle band"
- MOL: "CC(C)N"
  CLASS_NAME: "high band"
- MOL: "Nc1cccc2c1nnn2[C@@H]1C[C@@H](O)[C@H](CO)O1"
  CLASS_NAME: "low band"
- MOL: "CC/N=C1\\C=C(NCC)CC(C)(C)C1"
  CLASS_NAME: "high band"

Classify this compound: CCc1ccc([C@@H]2CCC[NH+]2C)cn1
low band

Then what about the compound c1nc(Cc2c[nH]c(Cc3nc(Cc4cnc[nH]4)c[nH]3)n2)c[nH]1 ?
middle band

Then what about the compound Nc1ccccc1O ?
low band

Then what about the compound Cc1cnc2cccc([N+](=O)[O-])c2c1NCCC[NH+](C)C ?
middle band

====

Documented pKa across a set of molecules
details: acidic group
Give the figure by itself; no unit, no explanation.

- MOL: "Cc1ccc([N+](C)(C)O)cc1"
  MEASURED: 4.32

Which pKa is listed for Oc1ccccc1-c1ccccn1 ?
10.6

Then what about the molecule Nc1[nH]cc(O)[nH+]1 ?
4.8

Then what about the molecule Cn1nc(Cl)nc1NN=O ?
4.03

====

Documented pKa across a set of compounds
settings: acidic group
Give the figure by itself; no unit, no explanation.

Worked examples, 8 compounds total:
- COMPOUND: "CCOP(=O)([O-])NS(=O)(=O)c1ccccc1"
  pKa: 6.5
- COMPOUND: "CC(=O)N(O)c1ccccc1"
  pKa: 8.36
- COMPOUND: "CC[NH+](CC)Cc1cc(F)ccc1O"
  pKa: 8.23
- COMPOUND: "CN(C)c1nc(/N=N/O)nn1C"
  pKa: 5.94
- COMPOUND: "Oc1ccc(Cl)cc1"
  pKa: 9.29
- COMPOUND: "O=C(O)Cc1nnn[nH]1"
  pKa: 3.1
- COMPOUND: "Fc1cccc(NC=S)c1"
  pKa: 10.9
- COMPOUND: "O=C(O)C1COCCO1 (stereo not given)"
  pKa: 3.15

Which pKa is listed for O=C(O)C[NH+](CC(=O)O)Cc1cc([N+](=O)[O-])ccc1O ?
2.4

Then what about the compound COc1cccc(OC)c1O ?
10.1

====

Documented pKa across a set of compounds
conditions: acidic group
Give the figure by itself; no unit, no explanation.

Worked examples, 5 compounds total:
- COMPOUND: "COc1c(C)cc2c(c1C(=O)O)COC2"
  pKa: 3.13
- COMPOUND: "Cc1cccc([NH3+])c1C(=O)O"
  pKa: 3.2
- COMPOUND: "COC(=O)CC(C)=O"
  pKa: 10.6
- COMPOUND: "[O-]c1[nH+]c(O)nc2nc[nH]c12"
  pKa: 7.56
- COMPOUND: "CC(C)=NNS(C)(=O)=O"
  pKa: 8.5

Which pKa is listed for CC(=O)C1=CC=CC1 ?
8.84

Then what about the compound Cc1cc(C(C)C)ccc1O ?
10.6

Then what about the compound CCN(CC)CC(=N\[O-])/C(C)=N/O ?
11.9

Then what about the compound O=C1CCc2cc(Cl)c([N+](=O)[O-])cc2C1 ?
11.3

Then what about the compound Cc1cc(C#N)cc(C)[n+]1O ?
-0.61

Then what about the compound CCc1nnc(CC)n1N ?
9.77
